Taken from patent US6319702A.

test system: 268gly; assay: Enzyme kinetics of prodrugs with 268gly mutant of human CPA1 (coupled assay); format: biochemical; settings: 268Gly
observationType: kcat/Km (M⁻¹ s⁻¹)

• CN(Cc1cnc2nc(N)nc(N)c2n1)c1ccc(C(=O)N[C@@H](CCC(=O)O)C(=O)N[C@@H](Cc2cccc(C3CCCC3)c2)C(=O)O)cc1 [Prodrug 9] = 92000
• CN(Cc1cnc2nc(N)nc(N)c2n1)c1ccc(C(=O)N[C@@H](CCC(=O)O)C(=O)N[C@@H](Cc2cccc(C(C)(C)C)c2)C(=O)O)cc1 [Prodrug 12] = 380000
• CN(Cc1cnc2nc(N)nc(N)c2n1)c1ccc(C(=O)N[C@@H](CCC(=O)O)C(=O)N[C@@H](Cc2cccc(C3CCC3)c2)C(=O)O)cc1 = 1.8e+06

====

experiment: Stability and biodistribution of prodrugs in vivo (HPLC of plasma and tissues); set-up: species or system mice (CD-1 nude; BALB/C where indicated); conditions: mouse, cecum, 50 mg/kg, CECUM, 120 min, 50 mg/kg i.p. or i.v., CD-1 nude mice; read-out: stability: percentage of material observed as intact prodrug, cecum
observationType: remaining at 2 h (%)

- Cc1nc2ccc3ccc(CNc4ccc(C(=O)N[C@@H](CCC(=O)O)C(=O)N[C@@H](Cc5ccccc5C(=O)O)C(=O)O)c(F)c4)cc3c2c(=O)[nH]1 [Prodrug 4]: 100
- CN(Cc1cnc2nc(N)nc(N)c2n1)c1ccc(C(=O)N[C@@H](CCC(=O)O)C(=O)N[C@@H](Cc2cccc(C3CCC3)c2)C(=O)O)cc1 [Prodrug 11]: 100
- CN(Cc1cnc2nc(N)nc(N)c2n1)c1ccc(C(=O)N[C@@H](CCC(=O)O)C(=O)N[C@@H](Cc2ccccc2C2CCCC2)C(=O)O)cc1 [Prodrug 8]: 56
- CN(Cc1cnc2nc(N)nc(N)c2n1)c1ccc(C(=O)N[C@@H](CCC(=O)O)C(=O)N[C@@H](Cc2cccc(C(C)(C)C)c2)C(=O)O)cc1 [Prodrug 12]: 80.7
- CN(Cc1cnc2nc(N)nc(N)c2n1)c1ccc(C(=O)N[C@@H](CCC(=O)O)C(=O)N[C@@H](CC(=O)O)C(=O)O)cc1 [Prodrug 6]: 59
- CN(Cc1cnc2nc(N)nc(N)c2n1)c1ccc(C(=O)N[C@@H](CCC(=O)O)C(=O)N[C@@H](Cc2ccc(O)c(C3CCCC3)c2)C(=O)O)cc1 [Prodrug 13]: 100
- Cc1nc2ccc3ccc(CNc4ccc(C(=O)N[C@@H](CCC(=O)O)C(=O)N[C@@H](CCC(=O)O)C(=O)O)c(F)c4)cc3c2c(=O)[nH]1 [Prodrug 1]: 76
- Cc1nc2ccc3ccc(CNc4ccc(C(=O)N[C@@H](CCC(=O)O)C(=O)N[C@@H](Cc5ccccc5I)C(=O)O)c(F)c4)cc3c2c(=O)[nH]1 [Prodrug 5]: 88

====

assay: Stability and biodistribution of prodrugs in vivo (HPLC of plasma and tissues); parameters: species or system mice (CD-1 nude; BALB/C where indicated); settings: CECUM, 30 min, 50 mg/kg i.p. or i.v., CD-1 nude mice
Item-by-item account of concentration of prodrug in cecum
observationType: concentration of prodrug in cecum

• CN(Cc1cnc2nc(N)nc(N)c2n1)c1ccc(C(=O)N[C@@H](CCC(=O)O)C(=O)N[C@@H](Cc2ccccc2C2CCCC2)C(=O)O)cc1 [Prodrug 8] = 6.8 nmol/g
• CN(Cc1cnc2nc(N)nc(N)c2n1)c1ccc(C(=O)N[C@@H](CCC(=O)O)C(=O)N[C@@H](Cc2cccc(C3CCCC3)c2)C(=O)O)cc1 [Prodrug 9] = 4.l
• Cc1nc2ccc3ccc(CNc4ccc(C(=O)N[C@@H](CCC(=O)O)C(=O)N[C@@H](CCC(=O)O)C(=O)O)c(F)c4)cc3c2c(=O)[nH]1 [Prodrug 1] = 6.0 nmol/g
• Cc1nc2ccc3ccc(CNc4ccc(C(=O)N[C@@H](CCC(=O)O)C(=O)N[C@@H](Cc5ccccc5I)C(=O)O)c(F)c4)cc3c2c(=O)[nH]1 [Prodrug 5] = 4.7 nmol/g
• CN(Cc1cnc2nc(N)nc(N)c2n1)c1ccc(C(=O)N[C@@H](CCC(=O)O)C(=O)N[C@@H](Cc2cccc(C3CCC3)c2)C(=O)O)cc1 [Prodrug 11] = 4.5 nmol/g
• Nc1nc(N)c(CCCNc2ccc(C(=O)N[C@@H](CCC(=O)O)C(=O)N[C@@H](Cc3cccc(C4CCCC4)c3)C(=O)O)cc2)c(=O)[nH]1 [Prodrug 14] = 4.l
• CN(Cc1cnc2nc(N)nc(N)c2n1)c1ccc(C(=O)N[C@@H](CCC(=O)O)C(=O)N[C@@H](Cc2ccc(O)c(C3CCCC3)c2)C(=O)O)cc1 [Prodrug 13] = 14.4 nmol/g
• CN(Cc1cnc2nc(N)nc(N)c2n1)c1ccc(C(=O)N[C@@H](CCC(=O)O)C(=O)N[C@@H](CC(=O)O)C(=O)O)cc1 [Prodrug 6] = 7.5 nmol/g
• CN(Cc1cnc2nc(N)nc(N)c2n1)c1ccc(C(=O)N[C@@H](CCC(=O)O)C(=O)N[C@@H](Cc2ccccc2C(=O)O)C(=O)O)cc1 [Prodrug 7] = 6.9 nmol/g

====

test: Stability and biodistribution of prodrugs in vivo (HPLC of plasma and tissues); set-up: species or system mice (CD-1 nude; BALB/C where indicated); conditions: mouse, small intestine, 50 mg/kg, SMALL INTESTINE, 30 min, 50 mg/kg i.p. or i.v., CD-1 nude mice; read-out: stability: percentage of material observed as intact prodrug, small intestine
observationType: remaining at 0.5 h (%)

* CN(Cc1cnc2nc(N)nc(N)c2n1)c1ccc(C(=O)N[C@@H](CCC(=O)O)C(=O)N[C@@H](Cc2ccccc2C2CCCC2)C(=O)O)cc1 [Prodrug 8] | 77
* CN(Cc1cnc2nc(N)nc(N)c2n1)c1ccc(C(=O)N[C@@H](CCC(=O)O)C(=O)N[C@@H](CC(=O)O)C(=O)O)cc1 [Prodrug 6] | 86
* Cc1nc2ccc3ccc(CNc4ccc(C(=O)N[C@@H](CCC(=O)O)C(=O)N[C@@H](Cc5cccc6ccccc56)C(=O)O)c(F)c4)cc3c2c(=O)[nH]1 [Prodrug 3] | 10
* CN(Cc1cnc2nc(N)nc(N)c2n1)c1ccc(C(=O)N[C@@H](CCC(=O)O)C(=O)N[C@@H](Cc2ccccc2)C(=O)O)cc1 [Prodrug 10, reference compound] | 16
